Biological target: methionine aminopeptidase-2 (MetAP2) (Homo sapiens, UniProt P50579)
Construct: made in house; host or cells: insect cells, baculovirus system (secreted, purified from culture supernatant)
Sequence (P50579 whole entry): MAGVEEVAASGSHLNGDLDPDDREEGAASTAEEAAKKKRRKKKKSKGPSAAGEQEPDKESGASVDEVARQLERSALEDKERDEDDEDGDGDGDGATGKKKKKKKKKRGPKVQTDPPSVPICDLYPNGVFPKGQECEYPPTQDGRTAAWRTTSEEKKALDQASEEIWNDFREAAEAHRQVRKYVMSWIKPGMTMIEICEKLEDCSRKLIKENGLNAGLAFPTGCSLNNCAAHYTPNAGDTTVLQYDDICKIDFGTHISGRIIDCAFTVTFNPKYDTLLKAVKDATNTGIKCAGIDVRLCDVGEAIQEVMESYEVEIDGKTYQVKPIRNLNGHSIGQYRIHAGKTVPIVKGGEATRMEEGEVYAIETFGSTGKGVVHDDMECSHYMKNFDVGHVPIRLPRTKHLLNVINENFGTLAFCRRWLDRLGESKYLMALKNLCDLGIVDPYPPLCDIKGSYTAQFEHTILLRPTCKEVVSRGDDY
Assay: Inhibition of MetAP2 enzyme activity (96-well, Met-Ala-Ser substrate, L-amino acid oxidase/peroxidase/ortho-dianisidine, 450 nm)
Format: biochemical
Conditions: IC50, recombinant MetAP2 4 μg/mL, pH 7.4, Met-Ala-Ser substrate, 20 minutes
Structures can show the parent of a compound that is named as a salt.
Note to self: use YES only for IC50 readings below 2000 nM; a reading exactly at 2000 nM still gets NO.

Illustrative cases are given below, each with its answer.
compound="N[C@H](CC1CCCCC1)C(O)C(=O)N[C@@H](CO)C(=O)OCc1cccc(OC(F)(F)F)c1 (stereo partly shown)" cat=NO
compound="CC(C)(Cc1ccc(F)cc1)NC(=O)C(O)[C@H](N)CC1CCCCC1 (mixture of isomers) [Example 227, Hydrochloride]" cat=YES
compound="N[C@H](CC1CCCCC1)C(O)C(=O)NC(CO)CO (mixture of isomers) [Example 136, trifluoroacetate]" cat=YES
compound="C[C@@H](c1cccc2ccccc12)N(C)C(=O)C(O)[C@H](N)CC1CCCCC1 (mixture of isomers) [Example 219, Hydrochloride]" cat=YES
compound="N[C@H](CC1CCCCC1)C(O)C(=O)NC1CCCCCC1 (mixture of isomers) [Example 204, Hydrochloride]" cat=NO

hey, is IC50 for CCSCC[C@@H](N)C(O)C(=O)NCCCCCNS(=O)(=O)c1cccc2c(N(C)C)cccc12 (stereo partly shown) [Example 79, dihydrochloride] lower than 2000 nM or not?
YES

Now try COC(=O)C(Cc1ccccc1)NC(=O)C(O)[C@H](N)CC1CCCCC1 (mixture of isomers) [Example 127, hydrochloride] .
NO
